Taken from patent US20240360238A1.

Provide the reported koff of each item.
- Tested System: T1, purified human CD117 ectodomain (R&D Systems #332-SR) (human, UniProt P10721 26-524)
- T1 construct: extracellular domain; Bought protein; also called c-kit; purified recombinant human CD117 ectodomain
- T1 sequence (P10721 26-524): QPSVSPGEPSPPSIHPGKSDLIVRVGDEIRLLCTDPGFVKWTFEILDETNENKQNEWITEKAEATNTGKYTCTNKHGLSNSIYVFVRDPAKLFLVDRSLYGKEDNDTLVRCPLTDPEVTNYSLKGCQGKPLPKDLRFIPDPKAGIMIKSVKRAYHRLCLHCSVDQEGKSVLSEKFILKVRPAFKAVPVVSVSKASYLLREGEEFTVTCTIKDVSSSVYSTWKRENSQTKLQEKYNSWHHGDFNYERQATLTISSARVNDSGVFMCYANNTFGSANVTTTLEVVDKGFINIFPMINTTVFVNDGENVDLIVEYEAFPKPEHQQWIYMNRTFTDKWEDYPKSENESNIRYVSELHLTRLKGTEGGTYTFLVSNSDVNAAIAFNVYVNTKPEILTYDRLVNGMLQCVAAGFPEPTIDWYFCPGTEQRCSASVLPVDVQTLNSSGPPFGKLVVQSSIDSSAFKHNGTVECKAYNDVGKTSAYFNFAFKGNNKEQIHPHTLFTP
- Assay Method Text: BLI, purified IgG on sensor, soluble ectodomain; apparent monovalent
Answers are plain numbers, in s⁻¹.

HC-3/LC-3 (Ab3) (antibody, IgG1, V domains shown, Purified IgG; also called 003) VH: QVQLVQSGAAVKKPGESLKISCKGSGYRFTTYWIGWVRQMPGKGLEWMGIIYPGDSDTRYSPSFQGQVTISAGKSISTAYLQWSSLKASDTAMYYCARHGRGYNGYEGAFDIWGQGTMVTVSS VL: AIRMTQSPSSLSASVGDRVTITCRASQGIRNDLAWYQQKPGKTPKLLIYDASSLESGVPSRFSGSGSGTDFTLTISSLQPEDFATYYCQQFNSYPLTFGGGTKVEIK
0.000352

// next entry
Incoming: Recorded koff for HC-25/LC-25 (Ab25) (antibody, IgG1, V domains shown, From rat immunization/hybridoma; purified IgG in BLI; also called 025) VH: QIQLVQSGPELKKPGESVKISCKASGYTFTDYAIHWVKQAPGQGLRWMAWINTETGKPTYADDFKGRFVFSLEASASTAHLQISNLKNEDTATFFCAGGSHWFAYWGQGTLVTVSS VL: SYELIQPPSASVTLENTVSITCSGDELSNKYAHWYQQKPDKTILEVIYNDSERPSGISDRFSGSSSGTTAILTIRDAQAEDEADYYCLSTFSDDDLPIFGGGTKLTVL , please?
Outgoing: 0.00153
